B1: SFRS1 (parent)
chain: RDIDLKNRRGGPPFAFVEFEDPRD

# Variants of: B1
# assay-overview: protein stability index of a GFP-peptide fusion (GPS, HEK-293T) (PSI 1-6); higher = more stable;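 note: lentivirally expressed fusions sorted by FACS into six bins by GFP to DsRed ratio, PSI derived from sequencing read proportions per bin multiplied by bin number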
# experimental-conditions: c terminus: a fixed tail appended
observation-type: protein stability index
Give bare numbers.

| item-sequence | result |
| --- | --- |
| RDIDLKNRRGPPPFAFVEFEDPRD [G11P] | 3.36 |
| RDIDLKNRRGGPPFAFVEFEDSRD [P22S] | 3.93 |
| RDIDLKNRRGGPPFAFVEFEVPRD [D21V] | 3.02 |
| RDIDLKNRRGGPPFAFLEFEDPRD [V17L] | 4.13 |
| RDIDLKNRRGGPPFAFVEFEYPRD [D21Y] | 3.18 |
| RDIDLKNRRGGPPFAFVEFEQPRD [D21Q] | 3.54 |

Fill in protein stability index for each of the 5 variants listed.
1. RDIDLKNRRGGPPFAFVEFEDPRW [D24W]
2. RDIDLKNRRGGPPFAFVEFEDWRD [P22W]
3. RDIDLKNRRGGPPFAFVEFEDPDD [R23D]
4. RDIDLKNRRGGPPFAFVEFEDVRD [P22V]
5. RDIDLKNRRGGPWFAFVEFEDPRD [P13W]

[1.33, 3.55, 4.18, 3.76, 3.39]

Fill in protein stability index for each of the 2 variants listed.
1. RDIDLKNRRGGPPFAPVEFEDPRD [F16P]
2. RDSDLKNRRGGPPFAFVEFEDPRD [I3S]

1: 5.26; 2: 3.45

Let me know recorded protein stability index for RDIDLKNRRGGPPFAFVEFEDHRD [P22H] , thanks.
3.63
